Values compiled from PubChem BioAssay (NCI).

System: UO-31 renal
Assay text: NCI-60 one-dose screen, 48 h (100 = growth as untreated, 0 = no growth, -100 = all killed)
Run parameters: 10 µM unless noted
Compounds without any hit were thinned out: in the full panel of roughly 83,000, 20% have a hit.
growth for assorted molecules
Expressed in %, but write only the number.

molecule="C#CCOc1ccc(C(Nc2cc(Cl)ccc2Cl)c2nnnn2C2CCCCC2)cc1 (configuration not stated)" experimental_system="UO-31 renal" readout=growth assay_result=62.5
molecule=CCOC(=O)c1c(NCC(=O)Nc2cccc(Cl)c2)sc2c1CCCC2 experimental_system="UO-31 renal" readout=growth assay_result=76.4
molecule=CN(C)CCn1c2ccc(N)cc2c2nc3ccccc3nc21 experimental_system="UO-31 renal" readout=growth assay_result=23

For reference, reported growth for Cc1ccc(C2CC(c3ccc(Nc4nc(NCCO)nc(Nc5ccc(Cl)cc5)n4)cc3)=Nc3c(N)nc(N)nc3N2)cc1 (configuration not stated) stands at -91.6

For reference, reported growth for COC[C@]12CC[C@@H](C)[C@H](C)[C@H]1C1=CC[C@@H]3[C@@]4(C)CCCNC(C)(C)[C@@H]4CC[C@@]3(C)[C@]1(C)CC2 stands at 60.2

For reference, reported growth for COc1ccccc1N1CCN(C2=NN=C(c3cccc(Cl)c3)c3ccccc3C2)CC1 stands at 24

* * *

Test system: COLO 205 colon
Assay text: NCI-60 one-dose screen, 48 h
Run parameters: 10 µM unless noted
This is part of a sample that, as a whole, favours compounds with a hit. Of some 83,000 tested, about 20% had one in any assay. The source made the active and inactive calls. How the source made its calls: active means growth percent below 10; inactive means the rest.
Log the outcome using a class from active, inactive

Worked cases, answers included:
compound=CC(C)SC1=NC(=C(C(=N1)NC2=ClC=CC=C2)C#N)C3=CC=CC=C3 cat=inactive
compound="NC(=O)N1N=C(c2cc3ccccc3oc2=O)CC1c1cn(-c2ccccc2)nc1-c1ccc(Cl)cc1 (centres undefined)" cat=inactive
compound=Cn1cc(-c2nnc(N)nc2-c2cn(C)c3ccc(F)cc23)c2cc(F)ccc21 cat=inactive

Query :: Hello, I am checking results. What call was entered for CN1CCN(c2ccc3c(C(N)=O)c(NC(=O)c4ccc(C(C)(C)C)cc4)sc3c2)CC1 ?
Result :: inactive

Query :: Hello, I am checking results. What call was entered for CS(=O)(=O)c1nccc(-c2c(-c3ccc(F)c(OCc4ccc(F)cc4)c3)nc3sccn23)n1 ?
Result :: inactive

Query :: Hello, I am checking results. What call was entered for CCCCOc1ccc(S(=O)(=O)N2CCN(c3nccc(N4CCOCC4)n3)CC2)cc1 ?
Result :: inactive

* * *

System: RPMI-8226 leukemia
Assay text: NCI-60 one-dose screen, 48 h
Run parameters: 10 µM unless noted
This is part of a sample that, as a whole, favours compounds with a hit. Of some 83,000 tested, about 20% had one in any assay. Active and inactive are the calls of the source. How the source made its calls: active means growth percent below 10; inactive means the rest.
Log the outcome using a class from T = active, F = inactive

Worked cases, answers included:
molecule=O=c1[nH]c(CCl)nc2c1cnn2-c1ccccc1 cat=F
molecule=CCNC(=O)Oc1ccc(/C(=C(/C)c2ccccc2)c2ccc(OCCN3CCCC3)cc2)cc1 cat=F

Query :: Hello, I am checking results. What call was entered for COc1c([C@@H](CC(C)C)OC(C)=O)ccc2c1C(=O)OCc1cc(C)cc(O)c1O2 ?
Result :: F

Query :: Hello, I am checking results. What call was entered for COc1ccc2c(C3=C(c4c[nH]c5ccccc45)C(=O)N(O)C3=O)coc2c1 ?
Result :: F

Query :: Hello, I am checking results. What call was entered for CCN1C(=O)N(CC)C2SC(N/N=C/c3ccc(F)cc3)=NC21 (centres undefined) ?
Result :: F
